system: MS2 coat protein; test: apparent KD of MS2 coat protein; designed switch direction (-1 OFF switch, 1 ON switch): -1; higher = weaker reporter binding; conditions: input ligand: none
I would appreciate it if you labelled entries 1 when apparent KD of MS2 coat protein is 60 nM or higher, otherwise 0.

Please review the entries below; each comes with its answer.
INSERT INTO assay_data (chain, target_system, category) VALUES
  ('ACAAAGCUAGGAUAUGUGGCGGAUAACAUGAGGAUCACCCAUGUGAGCUCACAGAUCCGAGCAGAAGGAGCGAUUA [EX5 A.10] (Eterna round: R97, puzzle: Exclusion 5)', 'MS2 coat protein', 0),
  ('UAUUAAGCAAGCAGAUCCCACAUGAGGAUCACCCAUGUGCUCGUCUUAUAAGGUACUGUGACAAAAGUCACGGUACC [Mat - Sensor, turn-off var - Eli Mod - D74] (Eterna round: R97, puzzle: Sensor, turn-off variant 1)', 'MS2 coat protein', 1);

Is apparent KD of MS2 coat protein at least 60 nM? Consider GCAGCAUAUGUAGGAUAUCUGCACGUUUAGUGCAGAGAAGGACAUGAGGAUCACCCAUGUAAUUAAGAUCAAUUAUUAAGCUGC [ENG1/4-A2] (Eterna round: R96, puzzle: Exclusion NG 1) 0

Assess whether reported apparent KD of MS2 coat protein for GCUGGUAUAGGAUAUACGUAAGACGUGGUCCACAGUUAAUUACAUGAGGAUCACCCAUGUAGAAGGAUGGAAGC [Eternabot (L2) Solution 95] (Eterna round: R97, puzzle: Exclusion 2) sits at 60 nM or higher. 1

Threshold query (apparent KD of MS2 coat protein >= 60 nM) on GUUUGACAUGAGGAUCACCCAUGUAAGGAUAUACGAGUAGAUGAUAGAUAGAUAGUAAGUAGAAGGUACGUGUU [Translation] (Eterna round: R97, puzzle: Exclusion 1) 1

Answer whether apparent KD of MS2 coat protein of AGAUAGUCAGGAUAUUAGUAAUAAAAGGAUAAUAAUAUUACUGAGAAGGGACAUGAGGAUCACCCAUGUAAUAU [JR_Ex4_Sub061] (Eterna round: R97, puzzle: Exclusion 4) is greater than or equal to 60 nM. 0

Can AUAAUGUAAGGAUAUCAGUCGACUAGCCUCGGCUAGUCGACUGAGAAGGUACAUGAGGAUCACCCAUGUGAAUA [E4/16-A2] (Eterna round: R97, puzzle: Exclusion 4) be said to have apparent KD of MS2 coat protein at or above 60 nM? 0

Please check the record GGUUUCGUAGGAUAUCAUCGAGUAAACAUGAGGAUCACCCAUGUGAGGUCGGCUUGCUCUUGAGAAGGAUGAAUGG [EX5 B.13] (Eterna round: R97, puzzle: Exclusion 5) and state if its apparent KD of MS2 coat protein is at or above 60 nM. 0

Assess whether reported apparent KD of MS2 coat protein for CAGUACUGAGGAUAUACAUGAGGAUCACCCAUGUGUUCCAGCUAGGAUACUAGCAAAUGUAGAAGGCAGUACUG [Mat - Exclusion 3 - Eli Mod - D8] (Eterna round: R97, puzzle: Exclusion 3) sits at 60 nM or higher. 1

Answer whether apparent KD of MS2 coat protein of GCACGAAGUGUAGGAUAUCUGUGCGAUUAGCUCAGAGAAGGACACAUGAGGAUCACCCAUGUGUUCCGCGGAAGCAAUACGUGC [Eli exng1 - 057] (Eterna round: R96, puzzle: Exclusion NG 1) is greater than or equal to 60 nM. 0

Quick check, apparent KD of MS2 coat protein >= 60 nM? AAGCUCACACGCUCGUCUUACAUGAGGAUCACCCAUGUCGCCGAGCUUCACAGGCUGAAGCUCAUAUAGGGUCAUGA [Eternabot (L2) Solution 26] (Eterna round: R97, puzzle: Sensor, turn-off variant 1) 1

Say whether GGAUAAAACUGAGGAUAUGCGUAUCGCUAGCGAGCAGAAGGCAGACAUGAGGAUCACCCAUGUGAGUUCUCGAUAAGAAACACG [Prohibition 59 - Jieux - Exclusion NG 1] (Eterna round: R96, puzzle: Exclusion NG 1) shows apparent KD of MS2 coat protein of 60 nM or more. 0

Given UAUUAGCAAGUAAGAUCCCACAUGAGGAUCACCCAUGUGCUCGUCUUAUAAGGUACUGUGACGAUAGUCACGGUACC [Mat - Sensor, turn-off var - Eli Mod - D44] (Eterna round: R97, puzzle: Sensor, turn-off variant 1) , state whether its apparent KD of MS2 coat protein is at least 60 nM. 0

Given the entry GCCUCGUCAGGAUAUUGGGAAGGCUGUUUUAUGAUUGCCCACAAGAAGGGACAUGAGGAUCACCCAUGUACAUU [Eternabot (L1) Solution 51] (Eterna round: R97, puzzle: Exclusion 4) , answer whether its apparent KD of MS2 coat protein meets or surpasses 60 nM. 0

Please tell me: is the sequence AUUUAGUCAGGAUAUUAGUAGUAAAUGAAUAAAAUUAUUACUGAGAAGGGACAUGAGGAUCACCCAUGUGUCUA [Mat - Exclusion 4 - Eli Mod - D8] (Eterna round: R97, puzzle: Exclusion 4) at or over 60 nM in terms of apparent KD of MS2 coat protein? 0

Exam item: decide whether the reported apparent KD of MS2 coat protein for AUCCUGCGAGGAUAUACAUAAUUUUUUUCGUUUUGACUCGAACAUGAGGAUCACCCAUGUAGAAGGUGCUUCAC [JR_Ex2_Sub027] (Eterna round: R97, puzzle: Exclusion 2) is at least 60 nM. 1

Record GCUGUCACCGUUAGGAUAUGUGAUUAAAUAUGAUCGCAGAAGGAACAUGAGGAUCACCCAUGUCGAUCCGUCCG [Eternabot (L1) Solution 36] (Eterna round: R97, puzzle: Brourd's mod of Exclusion 4) ; criterion: apparent KD of MS2 coat protein no lower than 60 nM. Met? 0

Exam item: decide whether the reported apparent KD of MS2 coat protein for ACUAAGGUAGGAUAUACGUGCGUGAUCGUGCCUUAGCUGGCACAUGAGGAUCACCCAUGUAGAAGGGCCAGACA [Esraleon] (Eterna round: R97, puzzle: Exclusion 2) is at least 60 nM. 0
